Tested on: HCT-116 colon
Test: NCI tumour cell line growth inhibition, 48 h
Note to self: values exactly at 20 µM are t. So TGI at or above 20 µM is t, below is f.

Some solved cases for reference:
>  <Compound>
C=C(C)[C@H]1C2=CC(C)=C(O2)[C@@H](O[C@@H]2c3oc(cc3C)[C@H](C(=C)C)[C@H]3C=C(CC[C@H]2C(=C)C)C(=O)O3)[C@H](C(=C)C)CCC2=C[C@H]1OC2=O

>  <Cat>
t

$$$$
>  <Compound>
Cc1c(C(=O)OCc2ccccc2)[n+](=O)c2cc(Cl)c(Cl)cc2n1[O-]

>  <Cat>
t

$$$$
>  <Compound>
C=CCC1C(O[Si](C)(C)C(C)(C)C)C(CO[Si](C)(C)C(C)(C)C)OC1n1ccc(=O)[nH]c1=O (centres undefined)

>  <Cat>
f

$$$$

# bool: TGI of C=C(C)CC1(O[Si](C)(C)C)C(=O)C(OCC)=C1OCC (centres undefined) >= 20 µM
t

# bool: TGI of CCOP(=O)(O)CN1CCNCCN(CP(=O)(O)OCC)CCNCC1 >= 20 µM
t

# bool: TGI of COc1ccc2[nH]c(O)c(/C=c3/cc4c(c(-c5ccc(F)c(OC)c5)n3)=Nc3ccccc3-4)c2c1 >= 20 µM
f

# bool: TGI of Cc1ccc(S(=O)(=O)c2nc(-c3ccccc3)oc2S(C)=O)cc1 (centres undefined) >= 20 µM
f

# bool: TGI of C1CC[N-]CC1.CC(=N\O)/C(C)=N/O.CC(=N\O)/C(C)=N/O.OC1[CH-]CCCC1.[Co+2] >= 20 µM
t

# bool: TGI of CC(C)(C)OC(=O)NCCCn1c2c(c3ccccc3c1=O)C(=O)c1ccccc1-2 >= 20 µM
f

----------
System: OVCAR-5 ovarian
Test: NCI tumour cell line growth inhibition, 48 h
Measured quantity: TGI

>  <Compound>
CCOC(=O)c1cc(C)nc2c1c(=O)n(-c1ccccc1)c(=O)n2CCCCN1CCN(c2ccccc2)CC1

>  <Reported>
> 100 µM

$$$$
>  <Compound>
CN(C)c1nc2ccccc2c2c1c1c(n2Cc2ccccc2)-c2ccccc2C1=O

>  <Reported>
> 100 µM

$$$$
>  <Compound>
CC(C)(C)[Si](C)(C)OCc1cccc(OCCOc2cccc(CO[Si](C)(C)C(C)(C)C)c2[N+](=O)[O-])c1[N+](=O)[O-]

>  <Reported>
> 100 µM

$$$$
>  <Compound>
CN(Cc1cnc2nc(N)nc(N)c2n1)c1ccc(C(=O)NC(CO)CCCO)cc1 (stereo not drawn)

>  <Reported>
> 100 µM

$$$$

Given the entry CSCCCNC(=O)c1ccc2c(c1)/C(=C/c1[nH]c(C)cc1C)C(=O)N2 , report its measured TGI.
> 100 µM

Given the entry COc1cc2c(cc1OCCCCCCN1CCN(CC(=O)Nc3ccc(Cl)cc3C(=O)c3ccccc3Cl)CC1)N=CC1CCCN1C2=O (stereo not drawn) , report its measured TGI.
1.34 µM

Given the entry CC(=O)Nc1ccc(OC/C(N)=N/NC(=O)c2ccncc2)cc1 , report its measured TGI.
> 100 µM

Given the entry O=c1/c(=C\c2ccc(F)cc2)sc2n1C(c1ccc(F)cc1)C1=C(N=2)c2ccc3ccccc3c2OCC1 (stereo not drawn) , report its measured TGI.
> 100 µM
